experiment: Terminal half life in Sprague-Dawley rat at 35 mg/kg, po administered via gavage by UPLC-MS analysis; assay type: ADME, organism-based; conditions: in vivo, read-out: beta t1/2 (converted)
readout-kind: half-life (h)
Report the value in h with no unit label.

Report half-life for COc1ccc(-n2cc(Cn3ccc4nc(-c5ccccc5F)nc-4c3)nn2)cc1 please.
2.88

====

assay: Apparent clearance during terminal phase in Sprague-Dawley rat at 35 mg/kg, po administered via gavage by UPLC-MS analysis; assay type: ADME, organism-based; details: in vivo, read-out: CLz/F (converted)
readout-kind: CL/F (mL/min/kg)
Report the value in mL/min/kg with no unit label.

Report CL/F for COc1ccc(-n2cc(Cn3ccc4nc(-c5ccccc5F)nc-4c3)nn2)cc1 please.
8.33
